Catalogue of growth readings, one per entry.
Test system: SNB-75 CNS
Test: NCI-60 one-dose screen, 48 h (100 = growth as untreated, 0 = no growth, -100 = all killed)
Settings: 10 µM unless noted
Compounds without any hit were thinned out: in the full panel of roughly 83,000, 20% have a hit.
readout.label: growth (%)

[[record]]
structure_as_smiles = "COc1ccc(Nc2ncc(Br)c(NCCCNC(=O)c3cccs3)n2)cc1"
value_observed = 48.9

[[record]]
structure_as_smiles = "O=C(CSc1oc(-c2ccccc2)nc1S(=O)(=O)c1ccccc1)Nc1ccc(F)cc1"
value_observed = 87.8

[[record]]
structure_as_smiles = "N=C(N)c1ccc(-c2ccc(-c3ccccc3)o2)cc1"
value_observed = 19.8

[[record]]
structure_as_smiles = "N#Cc1c(-c2ccccc2)cc(-c2ccccc2)n(CCCC(=O)Nc2ccccc2N)c1=O"
value_observed = -9.01

[[record]]
structure_as_smiles = "C=CC[Se]C(=O)Cc1c(C)n(C(=O)c2ccc(Cl)cc2)c2ccc(OC)cc12"
value_observed = -68.6


====

System: KM12 colon
Assay: NCI-60 one-dose screen, 48 h
Conditions: 10 µM unless noted
This is part of a sample that, as a whole, favours compounds with a hit. Of some 83,000 tested, about 20% had one in any assay. Activity calls are given as the source filed them. How the source made its calls: active means growth percent below 10; inactive means the rest.
Labels: YES for active, NO for inactive

[[record]]
molecule = "CCc1ncnc2c1ccn2C(C)c1ccc(OC)c(F)c1 (stereo not drawn)"
label_class = "NO"

[[record]]
molecule = "N#C/C(=C\\c1c(-c2ccccc2)[nH]c2ccccc12)C(N)=O"
label_class = "NO"

[[record]]
molecule = "O=c1[nH]c(-c2ccccc2)nc2sc3cc(O)ccc3c12"
label_class = "NO"

[[record]]
molecule = "CCc1ccc(CCCC(=O)O)cc1"
label_class = "NO"

[[record]]
molecule = "CCOC(=O)c1nn(-c2ccc(S(N)(=O)=O)cc2)c2nc(C)cc(=O)n12"
label_class = "NO"

[[record]]
molecule = "c1ccc2cc(C[n+]3ccn(CCCCCCCCCCn4cc[n+](Cc5ccc6ccccc6c5)c4)c3)ccc2c1"
label_class = "YES"

[[record]]
molecule = "COC1/C=C/OC2(C)Oc3c(C)c(O)c4c(O)c(c(/C=N/Nc5ccc([N+](=O)[O-])cc5[N+](=O)[O-])c(O)c4c3C2=O)NC(=O)C(C)=C/C=C/C(C)C(O)C(C)C(O)C(C)C(OC(C)=O)C1C (stereo not drawn)"
label_class = "YES"

[[record]]
molecule = "Cc1nc2sc(C(=O)Nc3cccc(Br)c3)c(N)c2cc1C(O)c1ccccc1 (stereo not drawn)"
label_class = "NO"

[[record]]
molecule = "Nc1n[nH]c2cccc(C#Cc3cccc(C(=O)Nc4cc(C(F)(F)F)cc(C(F)(F)F)c4)c3)c12"
label_class = "NO"

[[record]]
molecule = "CC(=O)/C(=C\\c1c(-c2ccccc2)[nH]c2ccccc12)S(C)(=O)=O"
label_class = "YES"

[[record]]
molecule = "CCCC/C(CC)=N\\NS(=O)(=O)c1ccc([N+](=O)[O-])cc1"
label_class = "NO"

[[record]]
molecule = "COc1cc(OC)c(/C=C/C(=O)c2c(OC)cccc2OC)c(OC)c1"
label_class = "YES"

[[record]]
molecule = "N=C(N)c1ccc(-c2ccc(-c3ccc(Cl)c(Cl)c3)s2)nc1"
label_class = "YES"

[[record]]
molecule = "O=C(CN1C(=O)NC2NC(=O)NC21)N/N=C/c1ccccc1[N+](=O)[O-] (stereo not drawn)"
label_class = "NO"

[[record]]
molecule = "CSc1nnc(-c2cc3c([nH]c4ccccc43)c(-c3cccc(O)c3)n2)n1-c1ccccc1"
label_class = "NO"

[[record]]
molecule = "Nc1n[nH]c2ccc([C@H]3[C@@H]4C5CCC(C5)[C@@H]4c4c(ccc5[nH]ncc45)N3S(=O)(=O)C3CC3)cc12 (stereo partly drawn)"
label_class = "YES"

[[record]]
molecule = "O=S(=O)(Nc1ccc(F)cc1F)c1ccc(-c2cnc(C3CC3)o2)cc1"
label_class = "NO"

[[record]]
molecule = "O=C(Nc1cccc(-c2ccc(Cl)c(C(F)(F)F)c2)c1)C1CCN(Cc2cccc3cccnc23)CC1"
label_class = "YES"

[[record]]
molecule = "COc1cc(C2CC(c3ccc(Nc4nc(Nc5ccc(Cl)cc5)nc(Nc5ccc(Cl)cc5)n4)cc3)=NN2C(C)=O)cc(OC)c1OC (stereo not drawn)"
label_class = "NO"

[[record]]
molecule = "Clc1ccc(/C=N\\N=C\\c2ccc(Cl)c(Cl)c2)cc1Cl"
label_class = "NO"

[[record]]
molecule = "NC(=O)c1ccc(-c2c3ccccc3cc3c2ccc2ccccc23)cc1"
label_class = "YES"

[[record]]
molecule = "c1ccc([P+](c2ccccc2)(c2ccccc2)c2ccc3c4ccc([P+](c5ccccc5)(c5ccccc5)c5ccccc5)c5cccc(c6cccc2c63)c54)cc1"
label_class = "YES"

[[record]]
molecule = "CN(C)CC(C)(C)C(=O)/C=C/c1ccccc1"
label_class = "YES"

[[record]]
molecule = "CCCCCCCCCc1ccc(OCCOCCOCCOCCOCCOCCOCCOCCOCCO)cc1"
label_class = "NO"

[[record]]
molecule = "c1ccc(-c2oc(-c3ccccc3)c(CN3CCCCC3)c2CN2CCCCC2)cc1"
label_class = "NO"

[[record]]
molecule = "CC(C)(Sc1cc(C(C)(C)C)c(O)c(C(C)(C)C)c1)Sc1cc(C(C)(C)C)c(OC(=O)CCCC(=O)O)c(C(C)(C)C)c1"
label_class = "NO"

[[record]]
molecule = "CCN(CC)CCn1c2ccc(O)cc2c2sc3cc(O)ccc3c(=O)c21"
label_class = "NO"

[[record]]
molecule = "O=C1/C(=C/c2cccc(F)c2)CN(C(=O)C(Cl)Cl)C/C1=C\\c1cccc(F)c1"
label_class = "YES"


Origin of values: PubChem BioAssay (NCI)
